# Organism: Oryctolagus cuniculus
# assay: Compound was tested for the in vitro smooth muscle contractile activity
# Assay type: functional
# condition description: Muscle tissue
readout kind: pEC50
Notebook: values listed as pEC50 are -log10 of the concentration (mol/L).

Example results:
CCC1OC(=O)C(C)C(O[C@H]2C[C@@](C)(OC)[C@@H](O)C(C)O2)C(C)[C@@H](OC2OC(C)CC(N(C)C)[C@H]2O)[C@]2(C)CC(C)=C(O2)[C@H](C)[C@@H](O)[C@]1(C)OC (stereo not given in full)	7.71
CC[C@H]1OC(=O)[C@H](C)[C@@H](O[C@H]2C[C@@](C)(OC)[C@@H](O)[C@H](C)O2)[C@H](C)[C@@H](OC2O[C@H](C)C[C@H](N(C)C)[C@H]2O)C(C)(O)C[C@@H](C)C(=O)[C@H](C)[C@@H](O)[C@]1(C)O (single isomer, unassigned)	6.50
CCC1OC(=O)C(C)C(O[C@H]2C[C@@](C)(OC)[C@@H](O)C(C)O2)C(C)[C@@H](OC2OC(C)CC(N(C)C(C)C)[C@H]2O)[C@]2(C)CC(C)=C(O2)[C@H](C)[C@@H](O)[C@]1(C)OC (stereo not given in full)	7.89

Next up:
Field pEC50 (entry CCC1OC(=O)C(C)C(O[C@H]2C[C@@](C)(OC)[C@@H](O)C(C)O2)C(C)[C@@H](OC2OC(C)CC(N(C)CC)[C@H]2O)[C@]2(C)CC(C)=C(O2)[C@H](C)[C@@H](O)[C@]1(C)OC (stereo not given in full) ) reads 7.64
